target: recombinant human PIM1 (Homo sapiens (Human)); assay: PIM-1 kinase activity in cell-free in vitro assay; assay type: biochemical
Sequence (P11309 whole entry): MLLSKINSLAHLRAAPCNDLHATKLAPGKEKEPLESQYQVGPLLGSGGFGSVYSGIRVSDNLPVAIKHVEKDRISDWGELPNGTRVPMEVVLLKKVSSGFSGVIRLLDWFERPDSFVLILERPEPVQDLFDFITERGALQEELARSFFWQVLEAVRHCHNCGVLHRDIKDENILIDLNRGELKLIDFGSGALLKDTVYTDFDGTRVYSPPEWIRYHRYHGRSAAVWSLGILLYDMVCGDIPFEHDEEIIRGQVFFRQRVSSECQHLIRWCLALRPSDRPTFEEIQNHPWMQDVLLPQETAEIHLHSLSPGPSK
// values below are reported IC50
property_label: IC50

molecule: c1cc(-c2nnc[nH]2)c2nc(N3CCOCC3)c3ccncc3c2c1
property_label: IC50
measured_result: 3970 nM

molecule: CS(=O)(=O)c1ccc(Nc2nc3c(-c4nnc[nH]4)cccc3c3cnccc23)c(Cl)c1
property_label: IC50
measured_result: < 100 nM

molecule: CNC(=O)c1cccc2c1nc(Nc1cccc(Cl)c1)c1ccncc12 [drawing 2307]
property_label: IC50
measured_result: < 100 nM

molecule: COCCOc1ccc(Nc2nc3c(-c4nnc[nH]4)cccc3c3cnccc23)c(F)c1
property_label: IC50
measured_result: < 100 nM

molecule: COc1ccc(Nc2nc3c(-c4nnc[nH]4)cccc3c3cnccc23)c(F)c1
property_label: IC50
measured_result: < 100 nM

molecule: CN(C)CCOc1ccc(Nc2nc3c(-c4nnc[nH]4)cccc3c3cnccc23)cc1
property_label: IC50
measured_result: < 100 nM

molecule: CCOC(=O)c1ccc(Nc2nc3c(-c4nnc[nH]4)cccc3c3cnccc23)c(Cl)c1
property_label: IC50
measured_result: < 100 nM

molecule: FC(F)(F)Oc1ccc(Nc2nc3c(-c4nnc[nH]4)cccc3c3cnccc23)c(Cl)c1
property_label: IC50
measured_result: < 100 nM

molecule: CN(C)CCOc1ccc(Nc2nc3c(-c4nnc[nH]4)cccc3c3cnccc23)c(Cl)c1
property_label: IC50
measured_result: < 100 nM

molecule: c1cc(-c2nnc[nH]2)c2nc(NC3CCCC3)c3ccncc3c2c1
property_label: IC50
measured_result: < 100 nM

molecule: c1cc(-c2nnc[nH]2)c2nc(NC3CCC3)c3ccncc3c2c1
property_label: IC50
measured_result: < 100 nM

molecule: NCc1ccc(Nc2nc3c(-c4nnc[nH]4)cccc3c3cnccc23)cc1
property_label: IC50
measured_result: < 100 nM

molecule: CN1CCN(c2ccc(Nc3nc4c(-c5nnc[nH]5)cccc4c4cnccc34)cc2)CC1
property_label: IC50
measured_result: < 500 nM

molecule: c1cc(-c2nnc[nH]2)c2nc(N3CCCC3)c3ccncc3c2c1
property_label: IC50
measured_result: < 500 nM

molecule: c1cc(-c2nnc[nH]2)c2nc(Nc3ccc(OCCN4CCOCC4)cc3)c3ccncc3c2c1
property_label: IC50
measured_result: < 100 nM

molecule: Clc1cc(OCCN2CCOCC2)ccc1Nc1nc2c(-c3nnc[nH]3)cccc2c2cnccc12
property_label: IC50
measured_result: < 100 nM

molecule: Oc1ccc(Nc2nc3c(-c4nnc[nH]4)cccc3c3cnccc23)c(Cl)c1
property_label: IC50
measured_result: < 100 nM

molecule: NCc1ccc(Nc2nc3c(-c4nnc[nH]4)cccc3c3cnccc23)c(Cl)c1
property_label: IC50
measured_result: < 100 nM

molecule: Fc1cc(OCCN2CCCC2)ccc1Nc1nc2c(-c3nnc[nH]3)cccc2c2cnccc12
property_label: IC50
measured_result: < 100 nM
